Across several studies, molecules have been characterized by their pKi on Coagulation factor XI (Homo sapiens, UniProt P03951); a selection follows.
Please express pKi as -log10 of the molar concentration.

-- ask Which pKi reading was recorded for the molecule `N=C(N)c1ccc(CNC(=O)c2cnn(Cc3ccccc3)c2)cc1` ?
-- reply 3.92

-- ask Which pKi reading was recorded for the molecule `CN(C)C1CCN(C(=O)[C@H](Cc2ccccc2)n2cnc(-c3cc(Cl)ccc3-n3cc(Cl)nn3)cc2=O)CC1` ?
-- reply 5.12

-- ask Which pKi reading was recorded for the molecule `Nc1n[nH]c2ccc(NC(=O)[C@H](Cc3ccccc3)n3cnc(-c4cc(Cl)ccc4-n4cc(Cl)nn4)cc3=O)cc12` ?
-- reply 6.26

-- ask Which pKi reading was recorded for the molecule `COC(=O)Nc1ccc2c(c1)NCCCCC[C@H](NC(=O)/C=C/c1cc(Cl)ccc1-n1cnnn1)c1nc-2c[nH]1` ?
-- reply 8.22

-- ask Which pKi reading was recorded for the molecule `CC(C)(C)OC[C@@H](NS(=O)(=O)Cc1ccccc1)C(=O)N[C@@H](CCC(=O)O)C(=O)NCc1ccc(C(=N)N)cc1` ?
-- reply 7.10

-- ask Which pKi reading was recorded for the molecule `N=C(N)c1ccc(CNC(=O)[C@H](CO)NC(=O)[C@@H](CCc2ccccc2)NS(=O)(=O)Cc2ccccc2)cc1` ?
-- reply 5.52

-- ask Which pKi reading was recorded for the molecule `O=C(O)c1ccc(C(=O)N[C@@H](Cc2ccccc2)c2ccc(-c3cc(Cl)ccc3-n3cnnn3)c[n+]2[O-])s1` ?
-- reply 8.16

-- ask Which pKi reading was recorded for the molecule COC(=O)Nc1cc(F)c2c(c1)NC(=O)C(C)CCCC(c1ccc(-c3c(F)ccc(Cl)c3F)c[n+]1[O-])c1cccc-2c1 (single isomer, unassigned) ?
-- reply 9.01

-- ask Which pKi reading was recorded for the molecule `COC(=O)Nc1ccc2c(c1)NC(=O)[C@H](C)CCC[C@H](NC(=O)c1nnn(-c3c(F)ccc(Cl)c3F)c1C)c1nc-2c[nH]1` ?
-- reply 6.82

-- ask Which pKi reading was recorded for the molecule `N=C(N)c1ccc(CNC(=O)[C@H](CCC2CCNCC2)NC(=O)[C@@H](CCC2CCNCC2)NS(=O)(=O)Cc2ccccc2)cc1` ?
-- reply 5.85

-- ask Which pKi reading was recorded for the molecule `COC(=O)Nc1ccc2c(c1)CCCCc1cccc(c1)C[C@H](NC(=O)/C=C/c1cc(Cl)ccc1-n1cnnn1)c1nc-2c(Cl)[nH]1` ?
-- reply 8.09

-- ask Which pKi reading was recorded for the molecule `O=C(/C=C/c1cc(Cl)ccc1-n1cnnn1)N[C@@H](Cc1ccccc1)c1cc(-c2ccc(NC(=O)OC3CNC3)cc2)cnn1` ?
-- reply 6.85

###

Across several studies, compounds have been characterized by their Ki on Coagulation factor XI (Homo sapiens); a selection follows.

-- ask Which Ki reading was recorded for the compound `NCc1ccc2c(c1)CCN([C@@H](Cc1ccccc1)c1ncc(-c3ccc(C(=O)O)s3)[nH]1)C2=O` ?
-- reply 546 nM

-- ask Which Ki reading was recorded for the compound C[C@@H]1CCC[C@@H](c2ccc(-c3cc(Cl)ccc3-n3cc(Cl)nn3)c[n+]2[O-])c2cccc(c2)-c2c(cnn2C(F)F)NC1=O (single isomer, unassigned) ?
-- reply 195 nM

-- ask Which Ki reading was recorded for the compound `O=C(Nc1cnns1)[C@H](Cc1ccccc1)n1cnc(-c2cc(Cl)ccc2-n2cc(Cl)nn2)cc1=O` ?
-- reply 1340 nM
